test.name: AUC (0 to infinity) in Sprague-Dawley rat at 300 umol/kg, po measured up to 1440 mins by LC/MS/MS analysis
Type: ADME, organism-based
Design: dose 300 umol/kg, time infinity, route oral
assay.setup: in vivo, 24 h
property.label: AUC
Don't forget the unit after the number, please.

AUC for Cc1c(O)c(O)cc[n+]1[C@@H](CO)Cc1ccccc1.[Cl-] ?
89800 ng·h/mL

###

test.name: Ratio of drug level in stomach to plasma in rat at 150 umol/kg, po measured within 10 mins by LC-MS/MS analysis
Assay type: ADME, organism-based
assay.setup: stomach and plasma
property.label: Kp at 10 min

Quick one: Kp at 10 min for Cc1c(O)c(O)cc[n+]1[C@@H](CO)Cc1ccccc1.[Cl-] ?
3.3 to 8.8
